Please respond with reported EC (150% of control) for every item in the list.
Tested on: human embryonic stem cell derived neural stem cells (NSCs)
METHOD_SUMMARY: Neural Stem Cell Proliferation Assay (neurogenesis assay, ATP levels by CellTiterGlo)
Assay type: cell-based
RUN_CONDITIONS: 96 h, compound concentration at which 150% activity of control (100%) is reached, NSC proliferation by ATP level after 4 days incubation, dose response 8 μM to 8 nM
Protocol: Neurogenic properties of small molecules are determined based on the proliferation of human embryonic stem cell derived neural stem cells (NSCs) which were derived via a dual smad inhibition as previously described (Chambers, S. M., et al., Highly efficient neural conversion of human ES and iPS cells by dual inhibition of SMAD signaling, Nature biotechnology, 2009. 27(3): p. 275-80.) Compounds respond is measured by the increase in cells based on ATP levels […]
Give bare numbers, in µM.

Please review the entries below; each comes with its answer.
N#Cc1cc(-c2ccc(F)nc2)c2c(c1)cc1n2CCNC1=O	0.36
COc1ccc(-c2cc(Cl)cc3c(C)c4n(c23)CCNC4=O)cn1	0.015
Cc1c2n(c3c(-c4cccc(C#N)c4)cc(C#N)cc13)CCNC2=O	0.31
Cc1c2n(c3c(-c4ccc(N)nc4)cc(Cl)cc13)CCNC2=O	0.27

Shift focus to the following entry.
Qu. Suppose we examine the molecule C[C@@H]1CNC(=O)c2cc3cc(F)cc(-c4ccncc4)c3n21 ; what EC (150% of control) value has been reported?
Ans. 0.4

Data provenance: patent US9284321B2
